Test: Phase 1 study (NCT04249843): plasma pharmacokinetics of Compound A
Type: in vivo, human
Conditions: human, plasma, oral; 60 mg QD, C2D1, patient 201-011 (excluded from C2D1 summary, extended dose interruption)
attribute measured: Tmax (h)
Field: numeric (h). Do not append units.

Answer with the recorded Tmax of `O=C1CCc2c(Oc3ccc4c(c3)[C@H]3[C@H](NC(=O)Nc5cc(F)c(F)cc5F)[C@H]3O4)ccnc2N1` only.
2

###

Experiment: Phase 1 study (NCT04249843): plasma pharmacokinetics of Compound A
Format: in vivo, human
Conditions: human, plasma, oral, 5 mg, 5 mg QD, C2D1, Mean (%CV); read-out: AUC8 h
attribute measured: AUC(0-t) (ng·h/mL)
API: value field is a number in ng·h/mL; no unit string.

// Input: `O=C1CCc2c(Oc3ccc4c(c3)[C@H]3[C@H](NC(=O)Nc5cc(F)c(F)cc5F)[C@H]3O4)ccnc2N1` . Output its AUC(0-t) only.
2660

###

Experiment: Phase 1 study (NCT04249843): plasma pharmacokinetics of Compound A
Type: in vivo, human
Conditions: human, plasma, oral, 40 mg, 40 mg QD, C2D1, Mean (%CV); read-out: AUC8 h
attribute measured: AUC(0-t) (ng·h/mL)
Hi! Could you send only the number? It should be in ng·h/mL, unit omitted.

Please give measured AUC(0-t) of the following entry: `O=C1CCc2c(Oc3ccc4c(c3)[C@H]3[C@H](NC(=O)Nc5cc(F)c(F)cc5F)[C@H]3O4)ccnc2N1`
15700

###

Assay: Phase 1 study (NCT04249843): plasma pharmacokinetics of Compound A
Format: in vivo, human
Conditions: human, plasma, oral, 40 mg, C1D1, Mean (%CV); read-out: AUC8 h
attribute measured: AUC(0-t) (ng·h/mL)
Entry rule: numbers only, all in ng·h/mL.

Return value of AUC(0-t) for input O=C1CCc2c(Oc3ccc4c(c3)[C@H]3[C@H](NC(=O)Nc5cc(F)c(F)cc5F)[C@H]3O4)ccnc2N1 [Compound A] , no commentary.
3960

###

Experiment: Phase 1 study (NCT04249843): plasma pharmacokinetics of Compound A
Type: in vivo, human
Conditions: human, plasma, oral, 40 mg, C1D1, patient 201-010
attribute measured: Cmax (ng/mL)
Write the answer as a number in ng/mL, unit excluded.

For the compound O=C1CCc2c(Oc3ccc4c(c3)[C@H]3[C@H](NC(=O)Nc5cc(F)c(F)cc5F)[C@H]3O4)ccnc2N1 [Compound A] , give its measured Cmax value.
415

###

Test: Phase 1 study (NCT04249843): plasma pharmacokinetics of Compound A
Format: in vivo, human
Conditions: human, plasma, oral, 40 mg, C1D1, patient 101-010; read-out: AUC8 h
Procedure: For a single-dose profile: AUC from zero to the last measurable concentration (AUClast), AUC from zero to infinity (AUC0-∞), maximum observed plasma concentration (Cmax), time to maximum observed plasma concentration (tmax), t1/2, apparent clearance, and apparent volume of distribution (Vz/F). In addition, AUClast,ss, AUCtau, Cmax,ss, and tmax, ss were calculated at steady state. […] Pharmacokinetic data were analyzed using the PK Population. […]
attribute measured: AUC(0-t) (ng·h/mL)
Express the result in ng·h/mL but write the number alone.

Supply recorded AUC(0-t) for `O=C1CCc2c(Oc3ccc4c(c3)[C@H]3[C@H](NC(=O)Nc5cc(F)c(F)cc5F)[C@H]3O4)ccnc2N1` here.
3850
